assay: Mouse blood and tissue PK (LC/MS-MS); format: in vivo; conditions: BALB/c nude, mouse, tumor, oral, 3 mg/kg, Capan-2, study Capan-2 #3_PHA 2023, 3 mg/kg, 24h; read-out: RMC-6236 (nM) Tumor
test readout: concentration at 24 h (nM)

compound structure: CCn1c(-c2cc(N3CCN(C)CC3)cnc2[C@H](C)OC)c2c3cc(ccc31)-c1csc(n1)C[C@H](NC(=O)[C@H]1C[C@@H]1C)C(=O)N1CCC[C@H](N1)C(=O)OCC(C)(C)C2
reported result: 109

---

assay: Mouse blood and tissue PK (LC/MS-MS); assay type: in vivo; conditions: mouse, tumor, oral, 1 mg/kg, NCI-H441 xenograft tumor, study NCI-H441#13, 1 mg/kg, 8h; read-out: RMC-6236 (nM) Tumor
test readout: concentration at 8 h (nM)

compound structure: CCn1c(-c2cc(N3CCN(C)CC3)cnc2[C@H](C)OC)c2c3cc(ccc31)-c1csc(n1)C[C@H](NC(=O)[C@H]1C[C@@H]1C)C(=O)N1CCC[C@H](N1)C(=O)OCC(C)(C)C2
unit label: nM
reported result: 114

---

assay: Mouse blood and tissue PK (LC/MS-MS); assay type: in vivo; settings: mouse, tumor relative to whole blood, oral, 3 mg/kg, NCI-H441 (3 mg/kg), single dose; read-out: Tumor/Blood AUC Ratio
test readout: Kp

compound structure: CCn1c(-c2cc(N3CCN(C)CC3)cnc2[C@H](C)OC)c2c3cc(ccc31)-c1csc(n1)C[C@H](NC(=O)[C@H]1C[C@@H]1C)C(=O)N1CCC[C@H](N1)C(=O)OCC(C)(C)C2
test readout: Kp
reported result: 5.4

---

experiment: Mouse blood and tissue PK (LC/MS-MS); format: in vivo; details: mouse, tumor, oral, 0.3 mg/kg, HPAC #11; 0.3 mg/kg, 8h; individual animals; read-out: RMC-6236 (nM) Tumor
test readout: concentration at 8 h

compound structure: CCn1c(-c2cc(N3CCN(C)CC3)cnc2[C@H](C)OC)c2c3cc(ccc31)-c1csc(n1)C[C@H](NC(=O)[C@H]1C[C@@H]1C)C(=O)N1CCC[C@H](N1)C(=O)OCC(C)(C)C2
reported result: 37 nM

---

experiment: Mouse blood and tissue PK (LC/MS-MS); type: in vivo; conditions: BALB/c nude, mouse, tumor, oral, 50 mg/kg, Capan-2, study Capan-2 #3_PHA 2023, 50 mg/kg, 4h; read-out: RMC-6236 (nM) Tumor

compound structure: CCn1c(-c2cc(N3CCN(C)CC3)cnc2[C@H](C)OC)c2c3cc(ccc31)-c1csc(n1)C[C@H](NC(=O)[C@H]1C[C@@H]1C)C(=O)N1CCC[C@H](N1)C(=O)OCC(C)(C)C2
concentration at 4 h, nM: 5600

---

assay: Mouse blood and tissue PK (LC/MS-MS); format: in vivo; conditions: mouse, tumor, oral, 25 mg/kg, Model Development Dataset; 25mg/kg_study8; 8 h; read-out: Tumor Concentration

compound: CCn1c(-c2cc(N3CCN(C)CC3)cnc2[C@H](C)OC)c2c3cc(ccc31)-c1csc(n1)C[C@H](NC(=O)[C@H]1C[C@@H]1C)C(=O)N1CCC[C@H](N1)C(=O)OCC(C)(C)C2 [RMC-6236]
concentration at 8 h: 2320 nM

---

assay: Mouse blood and tissue PK (LC/MS-MS); assay type: in vivo; settings: mouse, tumor relative to whole blood, oral, 25 mg/kg, HPAC (25 mg/kg), single dose; read-out: Tumor/Blood AUC Ratio

compound structure: CCn1c(-c2cc(N3CCN(C)CC3)cnc2[C@H](C)OC)c2c3cc(ccc31)-c1csc(n1)C[C@H](NC(=O)[C@H]1C[C@@H]1C)C(=O)N1CCC[C@H](N1)C(=O)OCC(C)(C)C2
Kp: 6.6
